Give measured RALB for each item. Keep answers brief.
Organism: Rattus norvegicus
Assay: Open TG-GATES - Regimen: Daily Repeat
Assay type: toxicity, organism-based, Sprague-Dawley
Design: regimen Daily Repeat, gender Male, age 6 weeks
Conditions: in vivo, po, 0 mg/kg, […], tissue Plasma, route gavage, dose level Control, time 28 day
# value in g/dL; strip the unit string

Give RALB for the following molecule: O=C(CCCN1CCC(O)(c2ccc(Cl)cc2)CC1)c1ccc(F)cc1 [HALOPERIDOL] 4.1

Give RALB for the following molecule: CCOc1ccc(NC(=O)CC(C)O)cc1 (stereo not given) [BUCETIN] 2.8

Give RALB for the following molecule: NNC(=O)c1ccncc1 [ISONIAZID] 3.6

Give RALB for the following molecule: NC(N)=Nc1nc(CSCCC(N)=NS(N)(=O)=O)cs1 [FAMOTIDINE] 3.5

Give RALB for the following molecule: CC1=C(/C=C/C(C)=C/C=C/C(C)=C/CO)C(C)(C)CCC1 [RETINOL] 3.3

---

Give measured KIDNEY_TOTAL for each item. Keep answers brief.
Organism: Rattus norvegicus
Assay: Open TG-GATES - Regimen: Daily Repeat
Format: toxicity, organism-based, Sprague-Dawley
Parameters: regimen Daily Repeat, gender Male, age 6 weeks
Settings: in vivo, po, 0 mg/kg, […], tissue Kidney, route gavage, dose level Control, time 7 day
# value in g; strip the unit string

Give KIDNEY_TOTAL for the following molecule: CCCNC(=O)NS(=O)(=O)c1ccc(Cl)cc1 [CHLORPROPAMIDE] 2.2

Give KIDNEY_TOTAL for the following molecule: CC(C)OC(=O)C(C)(C)Oc1ccc(C(=O)c2ccc(Cl)cc2)cc1 [FENOFIBRATE] 2.1

Give KIDNEY_TOTAL for the following molecule: CCOC(=O)CCC(=O)O[C@H]1[C@H](O[C@@H]2[C@@H](C)[C@H](O[C@H]3C[C@@](C)(OC)[C@@H](O)[C@H](C)O3)[C@@H](C)C(=O)O[C@H](CC)[C@@](C)(O)[C@H](O)[C@@H](C)C(=O)[C@H](C)C[C@@]2(C)O)O[C@H](C)C[C@@H]1N(C)C [ERYTHROMYCIN ETHYLSUCCINATE] 2.2

Give KIDNEY_TOTAL for the following molecule: `CN(C)CCN(Cc1cccs1)c1ccccn1` 2.1

Give KIDNEY_TOTAL for the following molecule: COc1ccc2[nH]c([S+]([O-])Cc3ncc(C)c(OC)c3C)nc2c1 (stereo not drawn) 2.3

Give KIDNEY_TOTAL for the following molecule: `NNC(=O)c1ccncc1` 2.2

Give KIDNEY_TOTAL for the following molecule: `NC(N)=Nc1nc(CSCCC(N)=NS(N)(=O)=O)cs1` 2.2

Give KIDNEY_TOTAL for the following molecule: `O=C(CCCN1CCC(O)(c2ccc(Cl)cc2)CC1)c1ccc(F)cc1` 2.1

---

Organism: Rattus norvegicus
Test: Open TG-GATES - Regimen: Daily Repeat
Assay type: toxicity, organism-based, Sprague-Dawley
Set-up: regimen Daily Repeat, gender Male, age 6 weeks
Conditions: in vivo, po, 0 mg/kg, 72 h, tissue Plasma, route gavage, dose level Control, time 3 day
Measured Property: GLC (mg/dL)
# value in mg/dL; strip the unit string

Give GLC for the following compound: `CC1=C(/C=C/C(C)=C/C=C/C(C)=C/CO)C(C)(C)CCC1` 199.8

Give GLC for the following compound: `CN(C)CCCN1c2ccccc2CCc2ccccc21` 180.6

Give GLC for the following compound: `NC(N)=Nc1nc(CSCCC(N)=NS(N)(=O)=O)cs1` 190.6

Give GLC for the following compound: `O=C(CCCN1CCC(O)(c2ccc(Cl)cc2)CC1)c1ccc(F)cc1` 191.2

Give GLC for the following compound: CC(C)OC(=O)C(C)(C)Oc1ccc(C(=O)c2ccc(Cl)cc2)cc1 [FENOFIBRATE] 180.4

Give GLC for the following compound: `NNC(=O)c1ccncc1` 209.2

Give GLC for the following compound: `CN(C)CCN(Cc1cccs1)c1ccccn1` 187.2

Give GLC for the following compound: COc1ccc2[nH]c([S+]([O-])Cc3ncc(C)c(OC)c3C)nc2c1 (stereo not drawn) 233.8

Give GLC for the following compound: CCCNC(=O)NS(=O)(=O)c1ccc(Cl)cc1 [CHLORPROPAMIDE] 184

Give GLC for the following compound: CCOC(=O)CCC(=O)O[C@H]1[C@H](O[C@@H]2[C@@H](C)[C@H](O[C@H]3C[C@@](C)(OC)[C@@H](O)[C@H](C)O3)[C@@H](C)C(=O)O[C@H](CC)[C@@](C)(O)[C@H](O)[C@@H](C)C(=O)[C@H](C)C[C@@]2(C)O)O[C@H](C)C[C@@H]1N(C)C [ERYTHROMYCIN ETHYLSUCCINATE] 198.2

Give GLC for the following compound: `CN1C(=O)CN=C(c2ccccc2)c2cc(Cl)ccc21` 198.8

Give GLC for the following compound: CCOc1ccc(NC(=O)CC(C)O)cc1 (stereo not drawn) 179

Give GLC for the following compound: `COC1=CC(=O)C[C@@H](C)[C@]12Oc1c(Cl)c(OC)cc(OC)c1C2=O` 210.8
